Measured IC50 (Tyrosine-protein kinase JAK3 (Homo sapiens, UniProt P52333))
endpoint: IC50 (µM)

Nc1nc(Nc2cccnc2)nn1C(=O)c1c(F)cccc1F    5
Nc1nc(Nc2ccccc2)nn1C(=O)c1c(F)cccc1F    3.25
CN(C)c1ccc(Nc2nc(N)n(C(=O)c3c(F)cccc3F)n2)cc1    0.85

* * *

target: UniProt:P23458
Sequence (P23458 whole entry): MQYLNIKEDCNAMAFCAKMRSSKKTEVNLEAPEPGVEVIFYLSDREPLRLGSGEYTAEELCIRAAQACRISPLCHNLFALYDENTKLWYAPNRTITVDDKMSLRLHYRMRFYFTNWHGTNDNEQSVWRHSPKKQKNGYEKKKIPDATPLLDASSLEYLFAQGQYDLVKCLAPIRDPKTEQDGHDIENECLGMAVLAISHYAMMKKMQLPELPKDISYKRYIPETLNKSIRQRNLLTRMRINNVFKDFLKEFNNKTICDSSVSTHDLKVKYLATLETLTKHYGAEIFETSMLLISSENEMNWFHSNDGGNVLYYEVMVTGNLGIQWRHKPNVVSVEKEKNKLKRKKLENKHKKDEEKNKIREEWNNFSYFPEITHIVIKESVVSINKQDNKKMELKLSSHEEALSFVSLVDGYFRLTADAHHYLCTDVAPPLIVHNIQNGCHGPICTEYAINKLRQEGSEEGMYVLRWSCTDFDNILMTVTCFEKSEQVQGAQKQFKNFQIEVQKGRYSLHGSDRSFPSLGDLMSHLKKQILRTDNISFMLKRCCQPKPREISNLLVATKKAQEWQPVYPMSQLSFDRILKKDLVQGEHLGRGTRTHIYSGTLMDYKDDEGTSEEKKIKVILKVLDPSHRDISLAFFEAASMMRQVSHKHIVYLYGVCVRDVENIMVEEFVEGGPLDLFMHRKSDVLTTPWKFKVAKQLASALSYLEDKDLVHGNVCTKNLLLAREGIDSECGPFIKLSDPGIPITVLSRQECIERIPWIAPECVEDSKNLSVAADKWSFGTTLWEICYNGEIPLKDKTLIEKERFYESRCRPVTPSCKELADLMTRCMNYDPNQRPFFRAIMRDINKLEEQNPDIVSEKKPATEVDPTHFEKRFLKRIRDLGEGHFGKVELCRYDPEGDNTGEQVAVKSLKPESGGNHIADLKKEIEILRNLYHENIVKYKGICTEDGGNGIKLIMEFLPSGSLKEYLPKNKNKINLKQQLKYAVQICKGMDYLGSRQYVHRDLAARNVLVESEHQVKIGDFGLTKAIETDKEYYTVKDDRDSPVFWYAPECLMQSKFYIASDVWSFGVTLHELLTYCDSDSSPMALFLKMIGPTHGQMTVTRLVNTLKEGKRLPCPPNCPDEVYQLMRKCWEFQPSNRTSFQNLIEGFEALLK
pIC50: −log10 of the molar value.
endpoint: pIC50

CN(C)c1ccc(Nc2nc(N)n(C(=O)c3c(F)cccc3F)n2)cc1    7.10
Nc1nc(Nc2cccnc2)nn1C(=O)c1c(F)cccc1F    6.80
CCOC(=O)c1cccc(Nc2nc(N)n(C(=O)c3c(F)cccc3F)n2)c1    6.00
COC(=O)c1ccc(Nc2nc(N)n(C(=O)c3c(F)cccc3F)n2)cc1    6.30
